Assignment: determine reported pIC50 for the given compounds.
target: VIM-1 (Pseudomonas aeruginosa (strain ATCC 15692 / DSM 22644 / CIP 104116 / JCM 14847 / LMG 12228 / 1C / PRS 101 / PAO1), UniProt A0A0F7KYQ8); test: Enzyme activity: determination of IC50, fluorescence assay with CCF2-FA substrate (VIM-1); format: biochemical; details: fluorescence assay with CCF2-FA substrate; read-out: VIM-1 IC50
Scale explanation: pIC50 corresponds to minus log10 of a concentration expressed in moles per litre.

So what does the record say about pIC50 for NS(=O)(=O)c1nccc(-c2ccc3c(c2)OCC(=O)N3)c1-c1nn[nH]n1 ?
7.62

So what does the record say about pIC50 for NS(=O)(=O)c1cccc(-c2cnc(N3CCOCC3)nc2)c1-c1nn[nH]n1 ?
6.63

So what does the record say about pIC50 for NS(=O)(=O)c1cccc(-c2ccc(C(O)C(F)(F)F)cc2)c1-c1nn[nH]n1 (stereo not drawn) ?
7.40

====

target: NDM-1 (Klebsiella pneumoniae); assay: biochemical; format: biochemical; conditions: fluorescence assay with CCF2-FA substrate; read-out: NDM-1 IC50
Sequence (C7C422 whole entry, looked up, species assumed): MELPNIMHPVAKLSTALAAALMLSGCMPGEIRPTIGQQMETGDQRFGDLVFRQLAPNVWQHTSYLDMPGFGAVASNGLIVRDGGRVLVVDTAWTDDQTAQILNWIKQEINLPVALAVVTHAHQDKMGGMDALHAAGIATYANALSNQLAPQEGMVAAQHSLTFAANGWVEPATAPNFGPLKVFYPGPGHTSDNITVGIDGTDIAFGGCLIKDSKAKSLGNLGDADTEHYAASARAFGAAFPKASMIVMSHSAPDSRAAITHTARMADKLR
Reported metric: IC50 (nM)
State the answer as a number, implicitly in nM.

So what does the record say about IC50 for NCCC1CCC(N2CC(c3ccc(-c4ccc(C(F)(F)F)c(S(N)(=O)=O)c4-c4nnn[nH]4)cc3)C2)CC1 (stereo not shown) ?
8.08

So what does the record say about IC50 for CN(C)CCC1CCN(c2ccnc(S(N)(=O)=O)c2-c2nnn[nH]2)CC1 ?
1060

So what does the record say about IC50 for NS(=O)(=O)c1c(C(F)(F)F)ccc(-c2ccc(C3CCN(CC4CCNC4)CC3)cc2)c1-c1nnn[nH]1 (stereo not shown) ?
5.23

So what does the record say about IC50 for NS(=O)(=O)c1cccc(-c2cnn3c2CCCC3)c1-c1nn[nH]n1 ?
10

====

Assignment: determine reported IC50 for the given compounds.
molecular target: VIM-1 (Pseudomonas aeruginosa (strain ATCC 15692 / DSM 22644 / CIP 104116 / JCM 14847 / LMG 12228 / 1C / PRS 101 / PAO1), UniProt A0A0F7KYQ8); test: Enzyme activity: determination of IC50, fluorescence assay with CCF2-FA substrate (VIM-1); type: biochemical; conditions: fluorescence assay with CCF2-FA substrate; read-out: VIM-1 IC50
State the answer as a number, implicitly in µM.

So what does the record say about IC50 for NS(=O)(=O)c1c(C(F)(F)F)ccc(N2CCCC3(CCNCC3)C2)c1-c1nnn[nH]1 ?
0.0139

So what does the record say about IC50 for CNC1CC(N2CCC(c3ccc(-c4ccc(C(F)(F)F)c(S(N)(=O)=O)c4-c4nnn[nH]4)cc3)CC2)C1 (stereo not drawn) ?
0.015

So what does the record say about IC50 for NS(=O)(=O)c1c(C(F)(F)F)ccc(-c2ccc(C3CCN(C4CCNC4)CC3)cc2)c1-c1nnn[nH]1 (stereo not drawn) ?
0.0165

====

target: VIM-1 (Pseudomonas aeruginosa (strain ATCC 15692 / DSM 22644 / CIP 104116 / JCM 14847 / LMG 12228 / 1C / PRS 101 / PAO1), UniProt A0A0F7KYQ8); test: Enzyme activity: determination of IC50, fluorescence assay with CCF2-FA substrate (VIM-1); assay type: biochemical; details: VIM-1 enzyme, CCF2-FA substrate; read-out: VIM-1 IC50
Reported metric: pIC50
Scale explanation: pIC50 corresponds to minus log10 of a concentration expressed in moles per litre.

So what does the record say about pIC50 for NS(=O)(=O)c1c(C(F)(F)F)ccc(C2CCCCC2)c1-c1nnn[nH]1 ?
9.30

So what does the record say about pIC50 for N=C(N)NC[C@H]1CC[C@@H](c2ccc(C(F)(F)F)c(S(N)(=O)=O)c2-c2nnn[nH]2)CC1 ?
8.84

So what does the record say about pIC50 for NS(=O)(=O)c1c(C(F)(F)F)ccc([C@H]2CC[C@H](NC3CCNCC3)CC2)c1-c1nnn[nH]1 ?
8.19
